Molecular target: T1, U-STAT1 (purified full-length unphosphorylated STAT1) (UniProt P42224 1-750)
T1 construct: also called Full-length STAT1
T1 sequence (looked up): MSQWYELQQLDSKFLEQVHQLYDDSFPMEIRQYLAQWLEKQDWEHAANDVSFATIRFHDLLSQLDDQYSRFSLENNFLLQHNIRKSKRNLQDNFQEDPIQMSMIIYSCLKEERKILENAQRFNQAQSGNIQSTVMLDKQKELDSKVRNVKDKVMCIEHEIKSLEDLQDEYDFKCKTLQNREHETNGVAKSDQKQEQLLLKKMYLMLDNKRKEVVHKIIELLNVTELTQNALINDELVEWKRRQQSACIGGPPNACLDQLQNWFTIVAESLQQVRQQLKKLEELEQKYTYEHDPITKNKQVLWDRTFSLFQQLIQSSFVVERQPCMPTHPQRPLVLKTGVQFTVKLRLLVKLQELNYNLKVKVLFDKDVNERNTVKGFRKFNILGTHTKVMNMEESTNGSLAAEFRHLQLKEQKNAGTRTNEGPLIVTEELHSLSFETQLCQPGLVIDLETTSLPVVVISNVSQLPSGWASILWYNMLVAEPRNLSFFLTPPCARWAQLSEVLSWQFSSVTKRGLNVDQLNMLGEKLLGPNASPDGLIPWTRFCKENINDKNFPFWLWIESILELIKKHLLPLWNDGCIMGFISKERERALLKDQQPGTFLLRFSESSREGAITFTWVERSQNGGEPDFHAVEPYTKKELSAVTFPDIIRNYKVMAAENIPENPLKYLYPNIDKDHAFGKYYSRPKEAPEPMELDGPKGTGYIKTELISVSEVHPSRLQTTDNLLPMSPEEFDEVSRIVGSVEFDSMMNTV
Test: ITC
Conditions: both partners purified
Recorded endpoint: pKd
Convention used: pKd is expressed as -log10 of the molar concentration.

Binder | pKd
MWSVFIHGHDGSNKGSKTYTS (domain or fragment) [GB1-018^T2] | 6.63
YDKPH (also called pYDKPH; pIFNGR 5-mer) [pIFNGR1 5-mer peptide] | 5.12

input: Which measured pKd value corresponds to GB1-018 (natural protein) MSSKGGSSGGMWSVFIHGHDGSNKGSKTYTSGGGGMWGGGSSSGVKSGVNGGVKSGTGKI ?
output: 6.54
